- Test system: SU-DHL-8 cells
- method_notes: cells
- test_context: Homo sapiens, SU-DHL-8, 72 h, read-out: EC50 in picoM, SUDHL8
Response field label takes yes (1) when EC50 is strictly below 6 nM and no (0) in all other cases.

As a guide, the following entries are already answered.
{"columns": ["compound", "classification"],
 "data": [
  ["C[C@]12CC[C@H](OC(=O)NCCCN3CCN(CCCN)CC3)C[C@H]1CC[C@@H]1[C@@H]2CC[C@]2(C)[C@@H](C3=CC(=O)OC3)CC[C@]12O", "no (0)"],
  ["C[C@]12CC[C@H](OC[C@@H]3OC[C@H](N)C(O)C3O)CC1CCC1C2CC[C@]2(C)[C@@H](C3=CC(=O)OC3)CC[C@]12O (stereo partly drawn)", "no (0)"],
  ["C[C@]12CCC(OC[C@@H]3OC[C@H](N)C(O)C3O)C=C1CCC1C2CC[C@]2(C)[C@@H](c3ccc(=O)oc3)CC[C@]12O (stereo partly drawn)", "yes (1)"],
  ["C[C@]12CC[C@H](O)C=C1CC[C@@H]1[C@@H]2CC[C@]2(C)[C@@H](c3ccc(=O)oc3)CC[C@]12O [Scillarenin, reference compound]", "no (0)"],
  ["C[C@]12CC[C@H](O)C[C@H]1CC[C@@H]1[C@@H]2CC[C@]2(C)[C@@H](c3ccc(=O)oc3)CC[C@]12O [Bufalin, reference compound]", "no (0)"],
  ["C[C@]12CC[C@H](O)C[C@H]1CC[C@@H]1[C@@H]2CC[C@]2(C)[C@@H](C3=CC(=O)OC3)CC[C@]12O [Digitoxigenin, reference compound]", "no (0)"],
  ["C[C@]12CC[C@H](OC(=O)NCCCN3CCN(CCCN)CC3)CC1CCC1C2CC[C@]2(C)[C@@H](c3ccc(=O)oc3)CC[C@]12O (stereo partly drawn)", "no (0)"]
]}

Please look at the following compound next.
IN: Lab note: EC50 threshold 6 nM. Does this compound come in strictly under it? CN(CCCN)CCCNC(=O)O[C@H]1CC[C@@]2(C)C(CCC3C2CC[C@]2(C)C(c4ccc(=O)oc4)CC[C@]32O)C1 (stereo in doubt)
OUT: yes (1)

====

- System: Ramos
- method_notes: cells
- test_context: Homo sapiens, 72 h, read-out: EC50 in picoM, Ramos
Measured pEC50, listed per entry for reference.
// pEC50 here means minus log10 of the molar concentration (mol/L)

Consider the reported pEC50 for these molecules:
{"columns": ["molecule", "pEC50"],
 "data": [
  ["C[C@]12CCC(OC[C@@H]3OC[C@H](N)C(O)C3O)C=C1CCC1C2CC[C@]2(C)[C@@H](c3ccc(=O)oc3)CC[C@]12O (stereo partly drawn) [CEN09-106]", 8.72],
  ["C[C@]12CC[C@H](OC[C@@H]3OC[C@H](N)C(O)C3O)CC1CCC1C2CC[C@]2(C)[C@@H](C3=CC(=O)OC3)CC[C@]12O (stereo partly drawn) [CEN-319]", 8.24]
]}

The reported value for C[C@]12CC[C@H](OC(=O)NCCCN3CCN(CCCN)CC3)CC1CCC1C2CC[C@]2(C)[C@@H](c3ccc(=O)oc3)CC[C@]12O (stereo partly drawn) [CEN-371] in terms of pEC50 is 8.11

// pEC50 value for C[C@]12CC[C@H](O)C=C1CC[C@@H]1[C@@H]2CC[C@]2(C)[C@@H](c3ccc(=O)oc3)CC[C@]12O [Scillarenin, reference compound] : 7.77

The recorded pEC50 for entry CN(CCCN)CCCNC(=O)O[C@H]1CC[C@@]2(C)C(CCC3C2CC[C@]2(C)C(c4ccc(=O)oc4)CC[C@]32O)C1 (stereo in doubt) [CEN-372] equals 8.44

// sample C[C@]12CC[C@H](O)C[C@H]1CC[C@@H]1[C@@H]2CC[C@]2(C)[C@@H](c3ccc(=O)oc3)CC[C@]12O [Bufalin, reference compound] , its pEC50 was 8.14

Entry C[C@]12CC[C@H](OC(=O)NCCCNCCCN)CC1CCC1C2CC[C@]2(C)C(c3ccc(=O)oc3)CC[C@]12O (stereo in doubt) [CEN-373] — recorded pEC50 = 8.40
